# experiment: AUCextrapolated in mouse at 1 mg/kg, iv
# Format: ADME, organism-based
# condition-description: in vivo
property-name: AUC (ng·h/mL)
Respond with the bare value in ng·h/mL.

Give the measured AUC of CC[C@@H]1c2c(C#N)ncn2-c2cnc(Nc3cc(F)c(C(=O)N[C@H]4CC[C@H](N5CCN(CC6CC6)CC5)CC4)cc3OC)nc2N1C(C)C .
1010

###

# target-or-system: hERG (KCNH2) (Homo sapiens, UniProt Q12809)
# Sequence (Q12809 whole entry): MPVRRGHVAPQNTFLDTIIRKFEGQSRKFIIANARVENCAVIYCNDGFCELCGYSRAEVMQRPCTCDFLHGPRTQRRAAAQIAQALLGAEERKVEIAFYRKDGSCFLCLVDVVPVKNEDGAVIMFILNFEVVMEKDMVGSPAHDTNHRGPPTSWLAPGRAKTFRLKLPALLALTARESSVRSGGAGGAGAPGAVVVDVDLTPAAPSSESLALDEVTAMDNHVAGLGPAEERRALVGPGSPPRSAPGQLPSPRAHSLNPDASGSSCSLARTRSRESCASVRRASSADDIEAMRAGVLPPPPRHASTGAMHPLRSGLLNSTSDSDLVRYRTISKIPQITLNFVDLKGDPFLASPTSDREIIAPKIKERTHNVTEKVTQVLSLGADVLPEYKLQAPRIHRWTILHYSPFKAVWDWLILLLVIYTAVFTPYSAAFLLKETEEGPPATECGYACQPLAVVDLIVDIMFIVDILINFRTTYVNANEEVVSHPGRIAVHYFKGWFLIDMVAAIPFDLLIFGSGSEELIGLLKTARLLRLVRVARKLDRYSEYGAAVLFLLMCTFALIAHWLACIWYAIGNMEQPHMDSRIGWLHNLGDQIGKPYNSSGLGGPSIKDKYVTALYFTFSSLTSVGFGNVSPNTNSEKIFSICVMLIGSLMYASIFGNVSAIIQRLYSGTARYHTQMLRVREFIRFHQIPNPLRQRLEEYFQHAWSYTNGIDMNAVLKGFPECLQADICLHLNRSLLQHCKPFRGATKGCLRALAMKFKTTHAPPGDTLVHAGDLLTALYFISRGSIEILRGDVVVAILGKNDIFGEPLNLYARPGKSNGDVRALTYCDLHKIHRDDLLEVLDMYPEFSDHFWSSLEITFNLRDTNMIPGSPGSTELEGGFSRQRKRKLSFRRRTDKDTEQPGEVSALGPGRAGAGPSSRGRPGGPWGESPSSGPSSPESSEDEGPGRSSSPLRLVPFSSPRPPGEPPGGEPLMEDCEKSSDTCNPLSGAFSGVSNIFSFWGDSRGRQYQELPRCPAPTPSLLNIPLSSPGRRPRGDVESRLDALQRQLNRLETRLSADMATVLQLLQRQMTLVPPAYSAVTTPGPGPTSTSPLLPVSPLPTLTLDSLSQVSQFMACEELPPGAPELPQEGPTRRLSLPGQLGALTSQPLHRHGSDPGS
# experiment: Inhibition of human ERG at 10 uM relative to control
property-name: inhibition at 10 µM (%)
Respond with the bare value in %.

Give the measured inhibition at 10 µM of CC[C@@H]1c2c(C#N)ncn2-c2cnc(Nc3cc(F)c(C(=O)NC4CCN(CC)CC4)cc3OC)nc2N1C(C)C .
37

###

# experiment: AUCextrapolated in mouse at 5 mg/kg, po
# Type: ADME, organism-based
# condition-description: in vivo
property-name: AUC (ng·h/mL)
Respond with the bare value in ng·h/mL.

Give the measured AUC of CC[C@@H]1c2c(C#N)ncn2-c2cnc(Nc3cc(F)c(C(=O)N[C@H]4CC[C@H](N5CCN(CC6CC6)CC5)CC4)cc3OC)nc2N1C(C)C .
4590

###

# experiment: Cmax in mouse at 1 mg/kg, iv
# Type: ADME, organism-based
# Parameters: dose 1 mg/kg, route intravenous
# condition-description: in vivo
property-name: Cmax (ng/mL)
Respond with the bare value in ng/mL.

Give the measured Cmax of CC[C@@H]1c2c(C#N)ncn2-c2cnc(Nc3cc(F)c(C(=O)N[C@H]4CC[C@H](N5CCN(CC6CC6)CC5)CC4)cc3OC)nc2N1C(C)C .
258

###

Listing of recorded EC50 by entry.
# Test system: HT-29
# experiment: Antiproliferative activity against human HT-29 cells after 72 hrs by CellTiter-Glo assay
# condition-description: HT-29, 72 h

CC[C@@H]1c2c(C#N)ncn2-c2cnc(Nc3cc(F)c(C(=O)NC4CCN(C)CC4)cc3OC)nc2N1C1CCCCC1    2 nM
CC[C@@H]1c2c(C#N)ncn2-c2cnc(Nc3cc(F)c(C(=O)NC4CCN(C)CC4)cc3OC)nc2N1C1CCCC1    1 nM
CC[C@@H]1c2c(CO)ncn2-c2cnc(Nc3ccc(C(=O)NC4CCN(C)CC4)cc3OC)nc2N1C1CCCC1    30 nM
CCNC(=O)c1ncn2c1[C@@H](CC)N(C1CCCC1)c1nc(Nc3ccc(C(=O)NC4CCN(C)CC4)cc3OC)ncc1-2    100 nM
CC[C@@H]1c2c(C(=O)O)ncn2-c2cnc(Nc3ccc(C(=O)NC4CCN(C)CC4)cc3OC)nc2N1C1CCCC1    400 nM

Give the measured EC50 of CC[C@@H]1c2c(C#N)ncn2-c2cnc(Nc3cc(F)c(C(=O)N[C@H]4CC[C@H](N5CCN(CC6CC6)CC5)CC4)cc3OC)nc2N1C(C)C .
22 nM

Give the measured EC50 of CC[C@@H]1c2c(C#N)ncn2-c2cnc(Nc3cc(F)c(C(=O)NC4CCN(CC)CC4)cc3OC)nc2N1C(C)C .
3 nM

###

# experiment: Volume of distribution at steady state in mouse at 1 mg/kg, iv
# Assay type: ADME, organism-based
# condition-description: in vivo, read-out: Vdss
property-name: Vd
Kindly write the number and append the unit.

Give the measured Vd of CC[C@@H]1c2c(C#N)ncn2-c2cnc(Nc3cc(F)c(C(=O)N[C@H]4CC[C@H](N5CCN(CC6CC6)CC5)CC4)cc3OC)nc2N1C(C)C .
8.9 L/kg
